test system: Botrytis cinerea; assay: Antifungal activity against Botrytis cinerea at 50 mg/L relative to control; format: functional
Quantity measured: inhibition at 50 µg/mL (%)
Just the number in %, nothing appended.

Molecule | inhibition at 50 µg/mL / %
Cc1ccc(Oc2nc3c(c(C)nc4sc5c(c43)CCCC5)c(=O)n2-c2ccccc2)cc1 | 80
CC(C)(C)C(=O)C(Oc1ccc(Cl)cc1)n1cncn1 (centres undefined) [TRIADIMEFON] | 78
CCCNc1nc2c(c(C)nc3sc4c(c32)CCCC4)c(=O)n1-c1ccccc1 | 57
Cc1nc2sc3c(c2c2nc(Oc4ccccc4)n(-c4ccccc4)c(=O)c12)CCCC3 | 85
CCCCNc1nc2c(c(C)nc3sc4c(c32)CCCC4)c(=O)n1-c1ccccc1 | 100

Please list inhibition at 50 µg/mL recorded for the molecule Cc1nc2sc3c(c2c2nc(Oc4ccc(Br)cc4)n(-c4ccccc4)c(=O)c12)CCCC3 83

Fill in inhibition at 50 µg/mL for record Cc1nc2sc3c(c2c2nc(Oc4ccc(F)cc4Cl)n(-c4ccccc4)c(=O)c12)CCCC3 88

Output measured inhibition at 50 µg/mL for this item: Cc1cccc(Oc2nc3c(c(C)nc4sc5c(c43)CCCC5)c(=O)n2-c2ccccc2)c1 99

Complete the entry with inhibition at 50 µg/mL for Cc1nc2sc3c(c2c2nc(Oc4ccc([N+](=O)[O-])cc4)n(-c4ccccc4)c(=O)c12)CCCC3 85

###

Quick reference for inhibition at 50 µg/mL among some compounds
system: Fusarium graminearum; assay: Antifungal activity against Gibberella zeae at 50 mg/L relative to control; assay type: functional
Express the result in % but write the number alone.

Example compounds with recorded inhibition at 50 µg/mL:
Compound | inhibition at 50 µg/mL (%)
Cc1nc2sc3c(c2c2nc(Oc4ccc(F)cc4Cl)n(-c4ccccc4)c(=O)c12)CCCC3 | 54
Cc1nc2sc3c(c2c2nc(Oc4ccccc4)n(-c4ccccc4)c(=O)c12)CCCC3 | 15
Cc1cc(Oc2nc3c(c(C)nc4sc5c(c43)CCCC5)c(=O)n2-c2ccccc2)ccc1Cl | 31
CC(C)(C)C(=O)C(Oc1ccc(Cl)cc1)n1cncn1 (stereo not given) | 59
CCCCNc1nc2c(c(C)nc3sc4c(c32)CCCC4)c(=O)n1-c1ccccc1 | 83
Cc1cccc(Oc2nc3c(c(C)nc4sc5c(c43)CCCC5)c(=O)n2-c2ccccc2)c1 | 65

Lab note: next compound to report on.
Please respond with reported inhibition at 50 µg/mL (system Fusarium graminearum) for CCCNc1nc2c(c(C)nc3sc4c(c32)CCCC4)c(=O)n1-c1ccccc1 . 20

###

system: Botrytis cinerea; assay: Antifungal activity against Botrytis cinerea at 50 mg/L relative to control; type: functional
compounds and their reported inhibition at 50 µg/mL
In your response, the unit should come after the numeric value.

Below, each entry is followed by its recorded inhibition at 50 µg/mL result.
Entry smiles | inhibition at 50 µg/mL
Cc1cc(Oc2nc3c(c(C)nc4sc5c(c43)CCCC5)c(=O)n2-c2ccccc2)ccc1Cl | 73%
Cc1nc2sc3c(c2c2nc(Oc4cc(F)cc(F)c4)n(-c4ccccc4)c(=O)c12)CCCC3 | 83%
Cc1ccc(Cl)c(Oc2nc3c(c(C)nc4sc5c(c43)CCCC5)c(=O)n2-c2ccccc2)c1 | 88%
Cc1nc2sc3c(c2c2nc(Oc4cccc(F)c4)n(-c4ccccc4)c(=O)c12)CCCC3 | 98%

State, in one line, measured inhibition at 50 µg/mL of Cc1nc2sc3c(c2c2nc(Oc4ccc(F)cc4F)n(-c4ccccc4)c(=O)c12)CCCC3 78%

Please report inhibition at 50 µg/mL for the following compound: COc1cccc(Oc2nc3c(c(C)nc4sc5c(c43)CCCC5)c(=O)n2-c2ccccc2)c1 66%

###

Overview of reported inhibition at 50 µg/mL across a group of molecules:
test system: Rhizoctonia solani; test: Antifungal activity against Rhizoctonia solani at 50 mg/L relative to control; type: functional
// units = %; emit number, no label

Some molecules with known inhibition at 50 µg/mL results, for comparison:
Molecule | inhibition at 50 µg/mL [%]
CCCNc1nc2c(c(C)nc3sc4c(c32)CCCC4)c(=O)n1-c1ccccc1 | 24
CCCCNc1nc2c(c(C)nc3sc4c(c32)CCCC4)c(=O)n1-c1ccccc1 | 89
Cc1cc(Oc2nc3c(c(C)nc4sc5c(c43)CCCC5)c(=O)n2-c2ccccc2)ccc1Cl | 22
Cc1cccc(Oc2nc3c(c(C)nc4sc5c(c43)CCCC5)c(=O)n2-c2ccccc2)c1 | 91
Cc1nc2sc3c(c2c2nc(Oc4cc(F)cc(F)c4)n(-c4ccccc4)c(=O)c12)CCCC3 | 74
Cc1nc2sc3c(c2c2nc(Oc4cccc(F)c4)n(-c4ccccc4)c(=O)c12)CCCC3 | 84

In one line, give reported inhibition at 50 µg/mL of the entry Cc1nc2sc3c(c2c2nc(Oc4ccc([N+](=O)[O-])cc4)n(-c4ccccc4)c(=O)c12)CCCC3 . 68

State its inhibition at 50 µg/mL: Cc1nc2sc3c(c2c2nc(Oc4ccccc4)n(-c4ccccc4)c(=O)c12)CCCC3 65

Return the recorded inhibition at 50 µg/mL value; entry: Cc1nc2sc3c(c2c2nc(Oc4ccc(F)cc4F)n(-c4ccccc4)c(=O)c12)CCCC3 63

Find the measured inhibition at 50 µg/mL of COc1cccc(Oc2nc3c(c(C)nc4sc5c(c43)CCCC5)c(=O)n2-c2ccccc2)c1 and report it. 76

Please report inhibition at 50 µg/mL for the following molecule: Cc1ccc(Oc2nc3c(c(C)nc4sc5c(c43)CCCC5)c(=O)n2-c2ccccc2)cc1 61

Provide inhibition at 50 µg/mL value for the following molecule: Cc1ccc(Cl)c(Oc2nc3c(c(C)nc4sc5c(c43)CCCC5)c(=O)n2-c2ccccc2)c1 63

Entry Cc1nc2sc3c(c2c2nc(Oc4ccc(F)cc4Cl)n(-c4ccccc4)c(=O)c12)CCCC3 needs its inhibition at 50 µg/mL filled in; supply it. 79

Please report the measured inhibition at 50 µg/mL for Cc1nc2sc3c(c2c2nc(Oc4ccc(Br)cc4)n(-c4ccccc4)c(=O)c12)CCCC3 68

Note down inhibition at 50 µg/mL recorded for CC(C)(C)C(=O)C(Oc1ccc(Cl)cc1)n1cncn1 (stereo not given) 91

###

tested on: Fusarium graminearum; experiment: Antifungal activity against Gibberella zeae at 50 mg/L relative to control; format: functional
Quantity measured: inhibition at 50 µg/mL
Please answer using the number first and the unit second.

Entry smiles | Experimental result
Cc1ccc(Cl)c(Oc2nc3c(c(C)nc4sc5c(c43)CCCC5)c(=O)n2-c2ccccc2)c1 | 23%

Tell me inhibition at 50 µg/mL reported for Cc1nc2sc3c(c2c2nc(Oc4ccc(F)cc4F)n(-c4ccccc4)c(=O)c12)CCCC3 38%

Input Cc1nc2sc3c(c2c2nc(Oc4cccc(F)c4)n(-c4ccccc4)c(=O)c12)CCCC3 , output reported inhibition at 50 µg/mL. 58%

Give recorded inhibition at 50 µg/mL. Cc1ccc(Oc2nc3c(c(C)nc4sc5c(c43)CCCC5)c(=O)n2-c2ccccc2)cc1 31%

Assign inhibition at 50 µg/mL to the following record: COc1cccc(Oc2nc3c(c(C)nc4sc5c(c43)CCCC5)c(=O)n2-c2ccccc2)c1 42%

Fill in inhibition at 50 µg/mL for record Cc1nc2sc3c(c2c2nc(Oc4cc(F)cc(F)c4)n(-c4ccccc4)c(=O)c12)CCCC3 31%

Tell me measured inhibition at 50 µg/mL for Cc1nc2sc3c(c2c2nc(Oc4ccc(Br)cc4)n(-c4ccccc4)c(=O)c12)CCCC3 please. 65%

Consider the molecule Cc1nc2sc3c(c2c2nc(Oc4ccc([N+](=O)[O-])cc4)n(-c4ccccc4)c(=O)c12)CCCC3 . State its measured inhibition at 50 µg/mL. 46%
